FYI, the data here is from patent US20210347785A1.

molecular target: PD-1/PD-L1 (Homo sapiens, UniProt Q9NZQ7); assay: PD-1/PD-L1 homogeneous time-resolved fluorescence (HTRF) binding assay; conditions: 665 nm/620 nm ratio
Sequence (Q9NZQ7 19-238 limits assumed): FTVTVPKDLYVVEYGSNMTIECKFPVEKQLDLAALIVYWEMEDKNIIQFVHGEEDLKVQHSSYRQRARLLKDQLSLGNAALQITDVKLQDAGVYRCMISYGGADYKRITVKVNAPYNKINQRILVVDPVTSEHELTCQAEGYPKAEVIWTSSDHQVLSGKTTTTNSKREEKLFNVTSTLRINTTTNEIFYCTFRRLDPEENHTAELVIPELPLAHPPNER
pIC50: −log10 of the molar value.
The reader will find reported pIC50 values listed item by item below.
recordedMetric: pIC50

>>> result("COc1nc(-c2cccc(-c3cccc(Nc4nccc5sc(CNCC(=O)O)nc45)c3Cl)c2Cl)cc(C)c1CN1CC2(CCC(=O)N2)C1 [Compound 30]")
"> 7.00"
>>> result("COc1nc(-c2cccc(-c3cccc(Nc4nccc5sc(CNCC(=O)O)nc45)c3Cl)c2C)ccc1CNC[C@@H]1CCC(=O)N1 [Compound 20]")
"> 7.00"
>>> result("COc1nc(-c2cccc(-c3cccc(Nc4nccc5sc(CN[C@H]6CC[C@@H](C(=O)O)CC6)nc45)c3Cl)c2Cl)cc(C)c1CNC[C@@H]1CCC(=O)N1 [Compound 51]")
"> 7.00"
>>> result("O[C@@H]1CCN(Cc2nc3c(Nc4cccc(-c5ccccc5)c4Cl)nccc3s2)C1 [Compound 6]")
"6.00 to 7.00"
>>> result("COc1nc(-c2cccc(-c3cccc(Nc4nccc5sc(CNCC(=O)O)nc45)c3Cl)c2Cl)cnc1CNC[C@@H]1CCC(=O)N1 [Compound 26]")
"6.00 to 7.00"
>>> result("OCCNCc1nc2c(Nc3cccc(-c4ccccc4)c3Cl)nccc2s1 [Compound 5]")
"> 7.00"

---

target: PD-1/PD-L1 (Homo sapiens, UniProt Q9NZQ7); assay: PD-1/PD-L1 homogeneous time-resolved fluorescence (HTRF) binding assay; conditions: 665 nm/620 nm ratio
pIC50: −log10 of the molar value.
recordedMetric: pIC50

>>> result("Cc1c(OCCCN2CCC(O)C2)cccc1-c1cccc(Nc2nccc3sc(CNCC(=O)O)nc23)c1Cl (stereo not drawn) [Compound 16]")
"> 7.00"
>>> result("COc1nc(-c2cccc(-c3cccc(Nc4nccc5sc(CN6CCC(CC(=O)O)C6)nc45)c3Cl)c2Cl)cc(C)c1CNC[C@@H]1CCC(=O)N1 (stereo partly drawn) [Compound 52]")
"> 7.00"
>>> result("COc1nc(-c2cccc(-c3cccc(Nc4nccc5sc(CN6CCC[C@H](C(=O)O)C6)nc45)c3Cl)c2Cl)ccc1CN1CC2(CCC(=O)N2)C1 [Compound 33]")
"> 7.00"
